compounds and their reported log10(IC50)
biological target: COX-2 (Homo sapiens); experiment: cell-based; settings: CHO[hCOX-2] cells, 10 μM AA, 15 min preincubation; read-out: COX-2 (IC50 mM) CHO
Sequence (P35354 18-604): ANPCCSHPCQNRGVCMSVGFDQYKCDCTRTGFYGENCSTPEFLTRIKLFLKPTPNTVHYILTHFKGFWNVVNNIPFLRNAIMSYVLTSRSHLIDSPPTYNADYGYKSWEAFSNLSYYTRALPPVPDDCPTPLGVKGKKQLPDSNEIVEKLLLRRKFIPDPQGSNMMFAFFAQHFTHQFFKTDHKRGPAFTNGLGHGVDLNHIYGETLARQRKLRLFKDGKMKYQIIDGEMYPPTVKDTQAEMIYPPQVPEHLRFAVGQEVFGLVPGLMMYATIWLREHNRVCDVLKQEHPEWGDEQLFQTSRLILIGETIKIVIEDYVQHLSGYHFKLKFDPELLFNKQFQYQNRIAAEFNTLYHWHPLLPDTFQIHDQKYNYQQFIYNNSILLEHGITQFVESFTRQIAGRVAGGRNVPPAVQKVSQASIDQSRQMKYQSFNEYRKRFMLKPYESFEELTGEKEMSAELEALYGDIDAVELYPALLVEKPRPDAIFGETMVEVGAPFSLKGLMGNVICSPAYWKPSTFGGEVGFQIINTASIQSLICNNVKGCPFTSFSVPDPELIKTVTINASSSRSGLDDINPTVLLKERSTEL
Base-10 log of IC50, unit µM.

Please review the following examples before continuing.
> print(dat)
                                   compound  experimental.readout  meas.value
1  COC(C)(C)COc1ncc(C(F)(F)F)cc1-c1ccc(S(C)(=O)=O)cc1           log10(IC50)       -1.52
2  CCC(O)(CC)COc1ncc(Cl)cc1-c1ccc(S(C)(=O)=O)cc1           log10(IC50)       -1.15
3  CCC(O)(CC)COc1ncc(C(F)(F)F)cc1-c1ccc(S(C)(=O)=O)cc1           log10(IC50)       -0.72

*Q* Form field: reported log10(IC50) of CC(C)(O)COc1ncc(C(F)(F)F)cc1-c1ccc(S(C)(=O)=O)cc1
*A* -0.82

*Q* Form field: reported log10(IC50) of CC(C)(O)COc1ncc(Cl)cc1-c1ccc(S(C)(=O)=O)cc1
*A* -0.96

*Q* Form field: reported log10(IC50) of CC(C)(O)CCOc1ncc(C(F)(F)F)cc1-c1ccc(S(C)(=O)=O)cc1
*A* -0.70

*Q* Form field: reported log10(IC50) of C[C@@H](Oc1ncc(C(F)(F)F)cc1-c1ccc(S(C)(=O)=O)cc1)C(C)(C)O
*A* -0.42

*Q* Form field: reported log10(IC50) of CS(=O)(=O)c1ccc(-c2cc(C(F)(F)F)cnc2OCC2(O)CCC2)cc1
*A* -1.30

*Q* Form field: reported log10(IC50) of CC(C)(O)/C=C\c1ncc(Cl)cc1-c1ccc(S(C)(=O)=O)cc1
*A* -2.00

*Q* Form field: reported log10(IC50) of CS(=O)(=O)c1ccc(-c2cc(C(F)(F)F)cnc2SCC2(O)CCCC2)cc1
*A* -0.80

*Q* Form field: reported log10(IC50) of C[C@]1(O)CCC[C@H]1Oc1ncc(Cl)cc1-c1ccc(S(C)(=O)=O)cc1 (relative stereo)
*A* -1.00

*Q* Form field: reported log10(IC50) of CCC(O)(CC)CSc1ncc(C(F)(F)F)cc1-c1ccc(S(C)(=O)=O)cc1
*A* -1.70

*Q* Form field: reported log10(IC50) of C[C@@H](O)[C@@H](C)Oc1ncc(C(F)(F)F)cc1-c1ccc(S(C)(=O)=O)cc1
*A* -1.30

*Q* Form field: reported log10(IC50) of CC[C@]1(O)CCC[C@H]1Oc1ncc(C(F)(F)F)cc1-c1ccc(S(C)(=O)=O)cc1 (relative stereo)
*A* -0.77

*Q* Form field: reported log10(IC50) of C[C@@]1(O)CCCC[C@@H]1Oc1ncc(C(F)(F)F)cc1-c1ccc(S(C)(=O)=O)cc1 (relative stereo)
*A* -0.24

*Q* Form field: reported log10(IC50) of CCC(Oc1ncc(C(F)(F)F)cc1-c1ccc(S(C)(=O)=O)cc1)C(C)(C)O (centres unmarked)
*A* -0.49

*Q* Form field: reported log10(IC50) of CS(=O)(=O)c1ccc(-c2cc(C(F)(F)F)cnc2OCC2(O)CC2)cc1
*A* -1.05

*Q* Form field: reported log10(IC50) of C[C@H](O)CCOc1ncc(C(F)(F)F)cc1-c1ccc(S(C)(=O)=O)cc1
*A* -0.59
